# target_or_test_system: T1, recombinant hAng-2 (C-His, R&D Systems) (human, UniProt O15123 19-496)
# T1 construct: Bought protein; also called human Ang-2 protein; C-terminal histidine-tagged human Ang2 (R&D Systems); not shown: C-terminal His tag
# T1 sequence: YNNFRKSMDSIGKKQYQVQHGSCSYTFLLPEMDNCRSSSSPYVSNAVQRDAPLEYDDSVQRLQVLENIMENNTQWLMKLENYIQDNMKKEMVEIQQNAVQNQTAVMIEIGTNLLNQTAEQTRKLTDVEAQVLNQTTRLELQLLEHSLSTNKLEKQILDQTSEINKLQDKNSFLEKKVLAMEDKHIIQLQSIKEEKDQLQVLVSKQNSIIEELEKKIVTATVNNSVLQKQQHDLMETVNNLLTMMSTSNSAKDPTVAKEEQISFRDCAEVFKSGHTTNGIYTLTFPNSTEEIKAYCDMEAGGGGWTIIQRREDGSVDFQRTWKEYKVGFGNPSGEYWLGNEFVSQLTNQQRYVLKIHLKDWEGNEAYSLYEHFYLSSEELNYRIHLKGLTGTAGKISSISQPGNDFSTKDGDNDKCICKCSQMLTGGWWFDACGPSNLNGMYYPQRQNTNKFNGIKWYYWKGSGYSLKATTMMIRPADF
# experiment: SPR, BIAcore T100; hAng2 (C-His) captured by anti-His antibody on CM5, antibody as analyte
endpoint_label: koff (s⁻¹)
Give bare numbers, in s⁻¹.

# binder, reported
rows = [
    ("h10D6-OPTI-63 (antibody, human IgG1, V domains shown) VH: QVQLQESGPGLVKPSETLSLTCAVSGYSITSDYAWNWIRQPPGKGLEWMGKISYSGKTDYNPSLKSRSTISRDTSKNQFSLKLSSVTAADTAVYYCARGNFEGAMDYWGQGTLVTVSS VL: DIQMTQSPSSLSASVGDRVTITCKASQFVSTDVHWYQQKPGKAPKLLIYYASNRYPGVPSRFSGSGSGTDFTLTISSLQPEDFATYYCQQDYSSPWTFGQGTKLEIK", "7.42e-05"),
]

Each binder below has a recorded value; state its koff.
1. h10D6-OPTI-65 (antibody, human IgG1, V domains shown) VH: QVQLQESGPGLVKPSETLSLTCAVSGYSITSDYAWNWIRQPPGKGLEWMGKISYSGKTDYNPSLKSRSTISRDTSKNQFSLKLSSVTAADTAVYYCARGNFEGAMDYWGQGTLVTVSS VL: DIQMTQSPSSLSASVGDRVTITCKASQSVSNDVAWYQQKPGKAPKLLIYYASIPYPGVPSRFSGSGSGTDFTLTISSLQPEDFATYYCQQDYSSPWTFGQGTKLEIK
2. h10D6-OPTI-67 (antibody, human IgG1, V domains shown) VH: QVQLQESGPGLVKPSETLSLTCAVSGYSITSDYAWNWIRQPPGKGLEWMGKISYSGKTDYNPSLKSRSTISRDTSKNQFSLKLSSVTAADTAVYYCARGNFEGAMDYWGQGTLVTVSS VL: DIQMTQSPSSLSASVGDRVTITCKASQSVSNDVHWYQQKPGKAPKLLIYYASIPYPGVPSRFSGSGSGTDFTLTISSLQPEDFATYYCQQDYSSPWTFGQGTKLEIK

Ans.
2.25e-05
2.68e-07
